viability, T/C values for the compounds below.
Test system: 885724-159-R-J1-PDC complex spheroid viability
protocolDescription: Anticancer human tumor 885724-159-R-J1-PDC patient-derived pancreatic adenocarcinoma cell line growth inhibition [POLQ]
setupConditions: second compound 0.0316 µM; first compound 1 µM; stronger effect = lower value
Procedure: Multicellular complex tumor spheroid response to Polymerase (POL) inhibitors (novobiocin, ART-558, RP6685) in combination with a variety of drugs and investigational agents in selected tumor cell lines The POL inhibitors (novobiocin, ART-558, and RP6685) were evaluated both individually and in combination with standard of care and investigational anticancer small molecules within a complex spheroid model of solid tumors. . […]
State just the number; it will be interpreted in %.

# compound, valueType, reportedValue
data = [
    ("C=CCn1c(=O)c2cnc(Nc3ccc(N4CCN(C)CC4)cc3)nc2n1-c1cccc(C(C)(C)O)n1 + COC1C(OC(N)=O)C(O)C(Oc2ccc3c(O)c(NC(=O)c4ccc(O)c(CC=C(C)C)c4)c(=O)oc3c2C)OC1(C)C", "viability, T/C", 42.2),
    ("CC1COCCN1c1cc(C2(S(C)(=N)=O)CC2)nc(-c2ccnc3[nH]ccc23)n1 (stereo not given) + COC1C(OC(N)=O)C(O)C(Oc2ccc3c(O)c(NC(=O)c4ccc(O)c(CC=C(C)C)c4)c(=O)oc3c2C)OC1(C)C", "viability, T/C", 67.8),
]

Given COc1cc(C2c3cc4c(cc3C(OC3OC5COC(C)OC5C(O)C3O)C3COC(=O)C23)OCO4)cc(OC)c1O (stereo not given) + Cc1cccc(N(C)C(=O)C2C(O)CCN2c2nc(C)cc(C(F)(F)F)c2C#N)c1 , respond with its viability, T/C.
75

Give the measured viability, T/C for CNCc1ccc(-c2[nH]c3cc(F)cc4c3c2CCNC4=O)cc1 + Cc1cccc(N(C)C(=O)C2C(O)CCN2c2nc(C)cc(C(F)(F)F)c2C#N)c1
89.2

Output viability, T/C of COc1ccc([C@@H](O)c2cc(-c3ncnc4cc(N5CCOCC5)ccc34)c(F)cc2Cl)nn1 + Cc1cccc(N(C)C(=O)C2C(O)CCN2c2nc(C)cc(C(F)(F)F)c2C#N)c1
70.1

Return value of viability, T/C for input CC1COCCN1c1cc(C2(O)CC3CCC(C2)O3)c2cnn(-c3ccn[nH]3)c2n1 (stereo not given) + COC1C(OC(N)=O)C(O)C(Oc2ccc3c(O)c(NC(=O)c4ccc(O)c(CC=C(C)C)c4)c(=O)oc3c2C)OC1(C)C , no commentary.
41.8

For CC(C)n1c(=O)n(C)c2cnc3cc(F)c(-c4ccc(OCCCN5CCCCC5)nc4)cc3c21 + Nc1ccc(C#CCN(C(=O)Cc2ncc(C(F)(F)F)cc2C(F)(F)F)c2ccc(F)cc2)nn1 , write its viability, T/C.
98.2

* * *

Tested on: 885724-159-R-J1-PDC complex spheroid viability
protocolDescription: Anticancer human tumor 885724-159-R-J1-PDC cell line growth inhibition [POLQ];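 also: spheroids exposed to compounds for 7 days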
setupConditions: second compound 0.0316 µM; first compound 0.01 µM; stronger effect = lower value
# key: entry, value: viability, T/C

# compound, viability, T/C
rows = [
    ("C=CCn1c(=O)c2cnc(Nc3ccc(N4CCN(C)CC4)cc3)nc2n1-c1cccc(C(C)(C)O)n1 + Cc1cccc(N(C)C(=O)C2C(O)CCN2c2nc(C)cc(C(F)(F)F)c2C#N)c1", "95.6%"),
]

Enter viability, T/C (test system 885724-159-R-J1-PDC complex spheroid viability) for COc1cccc(OCCCN)c1-c1cc(Nc2cnc(C#N)cn2)n[nH]1 + Cc1cccc(N(C)C(=O)C2C(O)CCN2c2nc(C)cc(C(F)(F)F)c2C#N)c1
51.3%

# return viability, T/C of COc1cccc(OCCCN)c1-c1cc(Nc2cnc(C#N)cn2)n[nH]1 + Nc1ccc(C#CCN(C(=O)Cc2ncc(C(F)(F)F)cc2C(F)(F)F)c2ccc(F)cc2)nn1 (system: 885724-159-R-J1-PDC complex spheroid viability)
52%

GET viability, T/C | system: 885724-159-R-J1-PDC complex spheroid viability | item: Cn1ncnc1[C@H]1c2n[nH]c(=O)c3cc(F)cc(c23)N[C@@H]1c1ccc(F)cc1 + COC1C(OC(N)=O)C(O)C(Oc2ccc3c(O)c(NC(=O)c4ccc(O)c(CC=C(C)C)c4)c(=O)oc3c2C)OC1(C)C
94.9%

Using 885724-159-R-J1-PDC complex spheroid viability as the test system, report measured viability, T/C of CC[C@@]1(O)C(=O)OCc2c1cc1n(c2=O)Cc2cc3c(CN(C)C)c(O)ccc3nc2-1 + Cc1cccc(N(C)C(=O)C2C(O)CCN2c2nc(C)cc(C(F)(F)F)c2C#N)c1 .
93.5%

Return reported viability, T/C for target or system 885724-159-R-J1-PDC complex spheroid viability, item CC[C@@]1(O)C(=O)OCc2c1cc1n(c2=O)Cc2cc3c(CN(C)C)c(O)ccc3nc2-1 + Nc1ccc(C#CCN(C(=O)Cc2ncc(C(F)(F)F)cc2C(F)(F)F)c2ccc(F)cc2)nn1 .
83.6%

Give viability, T/C for C=CCn1c(=O)c2cnc(Nc3ccc(N4CCN(C)CC4)cc3)nc2n1-c1cccc(C(C)(C)O)n1 + COC1C(OC(N)=O)C(O)C(Oc2ccc3c(O)c(NC(=O)c4ccc(O)c(CC=C(C)C)c4)c(=O)oc3c2C)OC1(C)C tested on 885724-159-R-J1-PDC complex spheroid viability.
109%

Return reported viability, T/C for target or system 885724-159-R-J1-PDC complex spheroid viability, item CC[C@@]1(O)C(=O)OCc2c1cc1n(c2=O)Cc2cc3c(CN(C)C)c(O)ccc3nc2-1 + COC1C(OC(N)=O)C(O)C(Oc2ccc3c(O)c(NC(=O)c4ccc(O)c(CC=C(C)C)c4)c(=O)oc3c2C)OC1(C)C .
98.1%

Give reported viability, T/C for C=CCn1c(=O)c2cnc(Nc3ccc(N4CCN(C)CC4)cc3)nc2n1-c1cccc(C(C)(C)O)n1 + Nc1ccc(C#CCN(C(=O)Cc2ncc(C(F)(F)F)cc2C(F)(F)F)c2ccc(F)cc2)nn1 (885724-159-R-J1-PDC complex spheroid viability)
96%

State viability, T/C on 885724-159-R-J1-PDC complex spheroid viability. Entry: CCc1c2c(nc3ccc(O)cc13)-c1cc3c(c(=O)n1C2)COC(=O)[C@]3(O)CC + Nc1ccc(C#CCN(C(=O)Cc2ncc(C(F)(F)F)cc2C(F)(F)F)c2ccc(F)cc2)nn1
60.1%

Provide viability, T/C, recorded with 885724-159-R-J1-PDC complex spheroid viability, of COc1cccc(OCCCN)c1-c1cc(Nc2cnc(C#N)cn2)n[nH]1 + COC1C(OC(N)=O)C(O)C(Oc2ccc3c(O)c(NC(=O)c4ccc(O)c(CC=C(C)C)c4)c(=O)oc3c2C)OC1(C)C
45.9%

Check 885724-159-R-J1-PDC complex spheroid viability data and give viability, T/C for CCc1c2c(nc3ccc(O)cc13)-c1cc3c(c(=O)n1C2)COC(=O)[C@]3(O)CC + Cc1cccc(N(C)C(=O)C2C(O)CCN2c2nc(C)cc(C(F)(F)F)c2C#N)c1 .
53.6%

Give the observed viability, T/C of CCc1c2c(nc3ccc(O)cc13)-c1cc3c(c(=O)n1C2)COC(=O)[C@]3(O)CC + COC1C(OC(N)=O)C(O)C(Oc2ccc3c(O)c(NC(=O)c4ccc(O)c(CC=C(C)C)c4)c(=O)oc3c2C)OC1(C)C for 885724-159-R-J1-PDC complex spheroid viability.
58.3%

System 885724-159-R-J1-PDC complex spheroid viability. Read-out viability, T/C. Item Cn1ncnc1[C@H]1c2n[nH]c(=O)c3cc(F)cc(c23)N[C@@H]1c1ccc(F)cc1 + Nc1ccc(C#CCN(C(=O)Cc2ncc(C(F)(F)F)cc2C(F)(F)F)c2ccc(F)cc2)nn1 . Report value.
90.7%

Provide viability, T/C, tested on 885724-159-R-J1-PDC complex spheroid viability, for Cn1ncnc1[C@H]1c2n[nH]c(=O)c3cc(F)cc(c23)N[C@@H]1c1ccc(F)cc1 + Cc1cccc(N(C)C(=O)C2C(O)CCN2c2nc(C)cc(C(F)(F)F)c2C#N)c1 .
86.3%

Hello, the source for this data is PubChem BioAssay AID1963832, in case you need it.
